- procedure-details: qHTS assay for cell viability of the p53RE-bla HCT-116 cell line (AID 743292); also: nearly all actives have a fitted effect of over 55% in size
- condition-context: p53RE-bla HCT-116 viability, ATP luminescence, 16 h; series mostly up to 95 µM
Results filed as inconclusive are left out. Calls of active or inactive are those of the source. Calls follow the shape of the dose curve; as a rule, active = well fitted cell-killing curve with a large enough effect; inconclusive = small, poorly fitted or top-dose-only effect, or effect the other way; inactive = flat fitted curve, though single readings scatter.
Outcomes: active, inactive

molecule: Nc1cccc2c(N)cccc12
group-label: inactive

molecule: CC(C)C(C)(C)C(C)(C)C(C)(C)S
group-label: inactive

molecule: OCc1c[nH]c2ccccc12
group-label: inactive

molecule: O=C(Oc1ccccc1)c1ccccc1O
group-label: inactive

molecule: Cc1cc(C(C)(C)C)c(O)c(C(C)(C)C)c1
group-label: inactive

molecule: O=C(Nc1ccc(Cl)cc1)Nc1ccc(Cl)c(Cl)c1
group-label: inactive

molecule: CCN(CC)CCOc1ccc(/C(=C(\Cl)c2ccccc2)c2ccccc2)cc1
group-label: active

molecule: c1ccc2occc2c1
group-label: inactive

molecule: O=C(NO)c1ccccc1
group-label: inactive

molecule: COC(=O)c1c(Cl)c(Cl)c(C(=O)OC)c(Cl)c1Cl
group-label: inactive

molecule: CC(C)(c1ccc(O)cc1)c1ccc(O)cc1
group-label: inactive

molecule: Brc1ccccc1-c1ccccc1
group-label: inactive

molecule: OCCOCCN1CCN(C(c2ccccc2)c2ccc(Cl)cc2)CC1 (centres undefined)
group-label: inactive

molecule: Oc1ccccc1
group-label: inactive

###

- procedure-details: qHTS of pediatric cancer cell lines to identify multiple opportunities for drug repurposing: Primary screen for A673 cells (AID 1347092); also: nearly all actives have a fitted effect of over 45% in size
- condition-context: A673 Ewing sarcoma viability, CellTiter-Glo ATP luminescence, 48 h; series mostly up to 46 µM
Results filed as inconclusive are left out. The source made the active and inactive calls. The call rests on the fitted dose curve; in most records, active means well fitted cell-killing curve with a large enough effect; inconclusive means small, poorly fitted or top-dose-only effect; inactive means no such curve, though single readings can be large or run the other way. Where a SMILES comes first, the peptide text is derived from it. [ ]: non-standard residue; d: D form. pGlu = O=C1CC[C@@H](C(=O)O)N1
Classes used: active, inactive

molecule: CCNC(=O)[C@@H]1CCCN1C(=O)[C@H](CCCN=C(N)N)NC(=O)[C@H](CC(C)C)NC(=O)CNC(=O)[C@H](Cc1ccc(O)cc1)NC(=O)[C@H](CO)NC(=O)[C@H](Cc1c[nH]c2ccccc12)NC(=O)[C@H](Cc1cnc[nH]1)NC(=O)[C@@H]1CCC(=O)N1 ([pGlu]HWSYGLRP-NHEt)
group-label: inactive
//
molecule: Nc1cc(C(F)(F)F)ccc1S
group-label: active
//
molecule: Oc1cccc2[nH]ccc12
group-label: inactive
//
molecule: CC(=O)OCC(=O)[C@@]1(O)[C@H](OC(C)=O)C[C@H]2[C@@H]3CCC4=CC(=O)C=C[C@]4(C)[C@@]3(F)[C@@H](O)C[C@@]21C
group-label: inactive
//
molecule: Nc1c(I)cc(I)c(C(=O)N(CCC(=O)O)c2ccccc2)c1I
group-label: inactive
//
molecule: Cc1sccc1Br
group-label: inactive
//
molecule: O=C(CCCCC(=O)Nc1c(I)cc(I)c(C(=O)O)c1I)Nc1c(I)cc(I)c(C(=O)O)c1I
group-label: inactive
//
molecule: C=CCOc1cc(Cl)ccc1C(=O)NCCN(CC)CC
group-label: inactive
//
molecule: O=C1[C@@H]2[C@H]3CC[C@H](C3)[C@@H]2C(=O)N1CCCCN1CCN(c2ncccn2)CC1
group-label: inactive
//
molecule: O=C(O)c1[nH]n(-c2ccc(S(=O)(=O)O)cc2)c(=O)c1N=Nc1ccc(S(=O)(=O)O)cc1
group-label: inactive
//
molecule: CN1CCCN=C1/C=C/c1cccs1
group-label: inactive
//
molecule: CC[C@@]1(O)C(=O)OCc2c1cc1n(c2=O)Cc2c-1nc1ccccc1c2/C=N/OC(C)(C)C
group-label: active
//
molecule: Cc1cc(CCCOc2c(C)cc(-c3noc(C(F)(F)F)n3)cc2C)on1
group-label: inactive
//
molecule: CC(COc1ccccc1)NN (stereo not given)
group-label: inactive
//
molecule: Cc1ccc(C(C)OC(=O)C2(C)CCC(C(=O)O)C2(C)C)cc1 (stereo not given)
group-label: inactive
//
molecule: C1N2CN3CN1CN(C2)C3
group-label: inactive
//
molecule: CCN(CC)CC(=O)Oc1ccc(NC(C)=O)cc1
group-label: inactive
//
molecule: COC(=O)CCCCC(CCSS/C(CCO)=C(\C)N(C=O)Cc1cnc(C)nc1N)SC(C)=O (stereo not given)
group-label: inactive
//
molecule: CCOC(=O)O[C@]1(C(=O)OCCl)CC[C@H]2[C@@H]3CCC4=CC(=O)C=C[C@]4(C)[C@H]3[C@@H](O)C[C@@]21C
group-label: inactive
//
molecule: OCCOCCN1CCN(C(c2ccccc2)c2ccc(Cl)cc2)CC1 (stereo not given)
group-label: inactive
